Provenance of the data: patent US20130281465A1

Molecular target: UniProt:O43613
Sequence (O43613 whole entry): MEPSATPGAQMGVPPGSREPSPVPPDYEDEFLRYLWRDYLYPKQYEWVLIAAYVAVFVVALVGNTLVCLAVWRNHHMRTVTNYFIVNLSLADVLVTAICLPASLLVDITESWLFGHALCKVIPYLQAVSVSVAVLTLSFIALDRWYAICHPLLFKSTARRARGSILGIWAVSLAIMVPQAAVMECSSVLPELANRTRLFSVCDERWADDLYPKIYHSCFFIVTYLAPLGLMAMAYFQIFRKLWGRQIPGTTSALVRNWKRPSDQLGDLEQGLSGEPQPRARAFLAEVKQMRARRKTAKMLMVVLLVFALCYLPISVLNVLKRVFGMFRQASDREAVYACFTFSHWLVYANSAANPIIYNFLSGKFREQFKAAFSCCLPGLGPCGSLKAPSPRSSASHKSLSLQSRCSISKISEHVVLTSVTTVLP
Assay: Orexin receptor antagonistic activity, intracellular Ca2+ fluorescence (FDSS) in CHO cells expressing hOX1R
Settings: CHO cells forced to express hOX1R; orexin-A analogue peptide ligand 300 pM; Fluo-4 maximum fluorescence; read-out: IC50 value OX1R
pIC50: −log10 of the molar value.
recorded_endpoint: pIC50

// solved cases for pIC50 follow
compound	recorded_endpoint	meas_value
Cc1ccc(-n2nccn2)c(C(=O)N(CCn2ccc(-c3ccccc3)n2)CC2CC2)c1 [Example 29]	pIC50	8.82
CCN(CCn1ccc(-c2ccc(F)cn2)n1)C(=O)c1cc(C)ccc1-c1cccnc1 [Example 36]	pIC50	7.51
CCN(CCn1ccc(-c2ccc(F)cn2)n1)C(=O)c1cc(C)ccc1-c1ccccn1 [Example 35]	pIC50	8.74
Cc1ccc(-n2nccn2)c(C(=O)N(CCn2cc(-c3ccc(F)cn3)cn2)C2CC2)c1 [Example 13]	pIC50	8.01

[a] Cc1ccc(-n2nccn2)c(C(=O)N(CCn2ccc(-c3ccc(F)cn3)n2)CC(F)F)c1 [Example 22]
[b] Cc1ccc(-n2nccn2)c(C(=O)N(CCn2cc(-c3ccc(F)cn3)cn2)CC2CC2)c1 [Example 5]
[c] Cc1ccc(-n2nccn2)c(C(=O)N(CCn2ccc(-c3ccc(F)cn3)n2)C(C)C)c1 [Example 27]
[d] Cc1ccc(-n2nccn2)c(C(=O)N(C)CCn2cc(-c3ccc(F)cc3)cn2)c1 [Example 3-2]
Order by pIC50, ascending. Respond with an ordered listing of the labels, as requested.
b, c, a, d
(b: 6.99, c: 7.68, a: 7.98, d: 8.66)
